- Test system: Pyricularia oryzae
- assaySummary: microbe, parasite or virus in culture
- Type: cell-based
- protocolConditions: 120 h, read-out: efficacy (inhibition of fungal growth)
measureName: inhibition at 20 ppm

Consider the following illustrative entries.
* Cc1ccc(C[C@@H]2CON=C(c3nc(C)ncc3Oc3cccc(Cl)c3)N2)c(Cl)c1 (racemic) | 90 to 100%
* Cc1ccc(C[C@@H]2CON=C(c3nc(C)ncc3Oc3cccc(C4CC4)c3F)N2)c(Cl)c1 (racemic) | 90 to 100%
* Cc1ccc(C[C@@H]2CON=C(c3nc(C)ncc3Oc3cccc(Cl)c3)N2)c(C)c1 (racemic) | 90 to 100%

Please find the next molecule below.
In: I'd like to know its inhibition at 20 ppm. The molecule in question is C=Cc1ccc(C[C@@H]2CON=C(c3nc(C)ncc3Oc3cccc(C(F)(F)F)c3)N2)c(C)c1 (racemic)
Out: 70 to 79%

---

- Test system: Septoria tritici
- assaySummary: Septoria tritici in vitro cell test
- Assay type: cell-based
- protocolConditions: Zymoseptoria tritici, 168 h; 20 ppm of active ingredient; 7 days incubation; liquid culture, spectrometric measurement of mycelium growth; read-out: efficacy (inhibition of fungal growth)
inhibition at 20 ppm reference

Worked cases, inhibition at 20 ppm given:
- Cc1ccc(CC2CON=C(c3nc(C4CC4)ncc3Oc3cccc(C(F)(F)F)c3)N2)c(C)c1 (racemic) [Compound I-001]: 90 to 100%
- Cc1ncc(Oc2cccc(Cl)c2)c(C2=NOCC(c3ccc4c(c3)CCC4)N2)n1 (racemic) [Compound I-014]: 90 to 100%
- Cc1ccc(C[C@@H]2CON=C(c3nc(C)ncc3Oc3cccc(Br)c3)N2)c(C)c1 (racemic) [Compound I-009]: 90 to 100%

In: Bench note: what inhibition at 20 ppm did Cc1ncc(Oc2cccc(Cl)c2)c(C2=NO[C@@H](F)[C@@H](c3ccc(Cl)cc3)N2)n1 (racemic) [Compound I-028] show?
Out: 90 to 100%

In: What measured inhibition at 20 ppm goes with Cc1ccc(C[C@@H]2CON=C(c3nc(C)ncc3Oc3cccc(Cl)c3)N2)c(Cl)c1 (racemic) [Compound I-018] ?
Out: 90 to 100%

In: Endpoint output: inhibition at 20 ppm of Cc1ncc(Oc2cccc(C(F)(F)F)c2)c(C2=NOCC(Cc3ccc(Br)cc3C)N2)n1 (racemic) [Compound I-021] . Value?
Out: 90 to 100%

---

- assaySummary: Measurement of Log P values by HPLC on reversed phase columns (EEC directive 79/831 Annex V.A8)
- Assay type: physicochemical
- protocolConditions: LogP
- Method: Measurement of Log P values as provided herein was performed according to EEC directive 79/831 Annex V.A8 by HPLC (High Performance Liquid Chromatography) on reversed phase columns with the following methods: • ^[a] Log P value is determined by measurement of LC-UV, in an acidic range, with 0.1% formic acid in water and acetonitrile as eluent (linear gradient from 10% acetonitrile to 95% acetonitrile). • ^[b] […]
Measured chromatographic logP, listed per entry for reference.
Simply state the number, no unit and no words.

Recorded results for 3 molecules are shown here.
- COc1ccc(C[C@H](CCl)NC(=NO)c2nc(C)ncc2Oc2cccc(C(F)(F)F)c2)c(Cl)c1 (racemic) [Compound 11-01]: 4.01
- Cc1ncc(Oc2cccc(C(F)(F)F)c2)c(C(=O)N[C@@H](CCl)Cc2csc(C(F)(F)F)c2)n1 (racemic) [Compound 10-07]: 4.55
- Cc1ncc(Oc2cccc(C(F)(F)F)c2)c(C2=NOC[C@@H](Cc3ccc(OC(F)F)cc3Cl)N2)n1 (racemic) [Compound I-027]: 4.15

Let us examine a further case.
In: chromatographic logP for Cc1ncc(Oc2cccc(Cl)c2)c(C2=NO[C@@H](F)[C@@H](c3ccc(Cl)cc3)N2)n1 (racemic) [Compound I-028] ?
Out: 3.79
